TESTED_ON: T1, Human CD47-C33G (human, UniProt Q08722 19-135)
T1 construct: also called CD47 mutein with C33G mutation
RUN_DESCRIPTION: SPR, IgG captured, CD47 in flow; exp 3;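 also: other target is a CD47 mutein carrying C33G, used to obtain true monovalent affinity, with kon and koff fitted from SPR binding curves and KD derived from both rates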
PROPERTY: log10(Kd) (log10 of the value in nM)
# log10 transformed; quantity=Kd; unit=nM

// known answers, use as guide
>  <BINDER>
108VH10.Mj / 108VL10.Me (antibody, V domains shown, 4D5-framework series; constant regions not restated for this series; also called VH10.Mj VL10.Me) VH: EVQLVESGGGLVQPGGSLRLSCAASGFTFSHHWIHWVRQAPGKGLEWVAMIDASDSETRLSQSFKDRFTISADTSKNTAYLQMNSLRAEDTAVYYCSRLGRYYFDYWGQGTLVTVSS VL: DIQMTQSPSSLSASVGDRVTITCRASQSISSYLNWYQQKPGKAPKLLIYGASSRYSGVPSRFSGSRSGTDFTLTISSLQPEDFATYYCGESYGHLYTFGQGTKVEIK

>  <log10(Kd)>
1.58

$$$$
>  <BINDER>
108VH10.Ml / 108VL10.Me (antibody, V domains shown, 4D5-framework series; constant regions not restated for this series; also called VH10.Ml VL10.Me) VH: EVQLVESGGGLVQPGGSLRLSCAASGFTFSHHWIHWVRQAPGKGLEWVAMIDASDSETRLSQKFKGRFTISADTSKNTAYLQMNSLRAEDTAVYYCSRLGRYYFDYWGQGTLVTVSS VL: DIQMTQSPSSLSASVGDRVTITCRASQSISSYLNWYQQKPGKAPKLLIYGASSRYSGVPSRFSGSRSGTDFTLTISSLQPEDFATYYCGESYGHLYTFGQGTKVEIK

>  <log10(Kd)>
1.56

$$$$
>  <BINDER>
chimeric antibody 108C10A6 (antibody, V domains shown, Chimeric antibody with mouse variable domains; captured through human Fc; also called VH / VL) VH: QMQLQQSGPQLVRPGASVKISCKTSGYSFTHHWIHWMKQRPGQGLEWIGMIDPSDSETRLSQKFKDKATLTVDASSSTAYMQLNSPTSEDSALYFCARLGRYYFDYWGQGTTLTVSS VL: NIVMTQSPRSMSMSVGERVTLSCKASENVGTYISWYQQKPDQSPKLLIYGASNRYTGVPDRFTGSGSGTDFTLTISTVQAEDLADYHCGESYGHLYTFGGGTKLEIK

>  <log10(Kd)>
-0.02

$$$$

Incoming: Consider the binder shown here: 108VH10.Mg / 108VL10.Me (antibody, V domains shown, 4D5-framework series; constant regions not restated for this series; also called VH10.Mg VL10.Me) VH: EVQLVESGGGLVQPGGSLRLSCAASGFTFSHHWIHWVRQAPGKGLEWVAMIDASDSETRLSQKFKDRFTISADTSKNTAYLQMNSLRAEDTAVYYCSRLGRYYFDYWGQGTLVTVSS VL: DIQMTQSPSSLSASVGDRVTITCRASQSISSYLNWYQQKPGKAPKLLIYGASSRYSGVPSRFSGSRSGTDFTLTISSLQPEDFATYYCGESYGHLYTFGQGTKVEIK What is its recorded log10(Kd)?
Outgoing: 1.49

Incoming: Then what about the binder 108VH10.Mh / 108VL10.Me (antibody, V domains shown, 4D5-framework series; constant regions not restated for this series; also called VH10.Mh VL10.Me) VH: EVQLVESGGGLVQPGGSLRLSCAASGFTFSHHWIHWVRQAPGKGLEWVAMIDASDSETRLVQKFKDRFTISADTSKNTAYLQMNSLRAEDTAVYYCSRLGRYYFDYWGQGTLVTVSS VL: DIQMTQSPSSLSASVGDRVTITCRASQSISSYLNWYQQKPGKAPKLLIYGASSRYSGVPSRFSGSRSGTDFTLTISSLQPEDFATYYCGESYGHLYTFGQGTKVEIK ?
Outgoing: 2.20

Incoming: Then what about the binder 108VH10 / 108VL10.M1 (antibody, V domains shown, 4D5-framework series; also called VH10 VL10.M1; straight-graft antibody) VH: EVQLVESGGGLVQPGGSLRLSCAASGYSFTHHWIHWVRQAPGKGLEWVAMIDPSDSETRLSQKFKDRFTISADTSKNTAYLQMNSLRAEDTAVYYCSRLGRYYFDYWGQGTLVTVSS VL: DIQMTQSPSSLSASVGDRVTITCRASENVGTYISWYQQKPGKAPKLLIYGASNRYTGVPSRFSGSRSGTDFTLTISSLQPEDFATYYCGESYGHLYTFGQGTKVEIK ?
Outgoing: 1.56

Incoming: Then what about the binder 108VH10.Mk / 108VL10.Me (antibody, V domains shown, 4D5-framework series; also called VH10.Mk VL10.Me) VH: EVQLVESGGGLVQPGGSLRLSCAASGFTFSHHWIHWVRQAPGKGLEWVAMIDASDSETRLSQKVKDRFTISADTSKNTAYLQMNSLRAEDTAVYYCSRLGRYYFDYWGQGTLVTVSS VL: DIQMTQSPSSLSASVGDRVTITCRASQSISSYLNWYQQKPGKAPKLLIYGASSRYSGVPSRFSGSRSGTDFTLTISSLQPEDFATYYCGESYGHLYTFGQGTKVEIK ?
Outgoing: 1.94

Incoming: Then what about the binder 108VH10.Mi / 108VL10.Me (antibody, V domains shown, 4D5-framework series; constant regions not restated for this series; also called VH10.Mi VL10.Me) VH: EVQLVESGGGLVQPGGSLRLSCAASGFTFSHHWIHWVRQAPGKGLEWVAMIDASDSETRLSDKFKDRFTISADTSKNTAYLQMNSLRAEDTAVYYCSRLGRYYFDYWGQGTLVTVSS VL: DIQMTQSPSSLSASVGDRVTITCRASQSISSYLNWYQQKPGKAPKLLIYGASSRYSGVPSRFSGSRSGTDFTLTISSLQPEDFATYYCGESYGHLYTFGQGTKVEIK ?
Outgoing: 1.58

Incoming: Then what about the binder 108VH4.M4-VL1.M1 (antibody, V domains shown, also called original humanized 108C10A6 antibody) VH: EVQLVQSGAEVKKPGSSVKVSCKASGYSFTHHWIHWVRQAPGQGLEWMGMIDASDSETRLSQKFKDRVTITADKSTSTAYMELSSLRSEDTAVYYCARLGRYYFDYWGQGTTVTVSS VL: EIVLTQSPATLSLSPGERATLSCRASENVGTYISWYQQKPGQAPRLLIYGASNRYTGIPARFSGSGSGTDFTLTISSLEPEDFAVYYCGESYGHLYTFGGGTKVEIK ?
Outgoing: 0.28
